# System: SK-MEL-2 melanoma
# assay-info: NCI tumour cell line growth inhibition, 48 h
quantity-measured: TGI

Prompt line: Entry COc1ccc2[nH]c(=O)cc(C)c2c1[N+](=O)[O-] needs its TGI filled in; supply it.
Response line: > 100 µM

Prompt line: Consider the compound NNC(=S)N/N=C(\c1nc2ccc(Cl)cc2[nH]c1=O)C(O)c1cccc([N+](=O)[O-])c1 (stereo unspecified) . State its measured TGI.
Response line: > 100 µM

Prompt line: Kindly indicate its recorded TGI. Item: CCC(=O)NC(NNS(=O)(=O)c1ccc(C)cc1)(C(F)(F)F)C(F)(F)F
Response line: > 100 µM

Prompt line: Provide one value: measured TGI of C=CCNC(=S)NC=C(C(N)=O)C(N)=O
Response line: > 100 µM

Prompt line: Note down TGI recorded for Nc1ccccc1SC(CC(=O)c1ccccc1)c1c(Cl)cccc1Cl (stereo unspecified)
Response line: 18.2 µM

Prompt line: Output measured TGI for this item: COc1ccc(C)cc1NC(=S)N/N=C/c1ccco1
Response line: 39.9 µM
